- protocolDescription: Plasma pharmacokinetics of esomeprazole and esomeprazole sulfone in goats after IV and SC administration (HPLC, non-compartmental analysis)
- assayConditions: both, pygmy and pygmy-cross, plasma, sc, 2 mg/kg, Vz/F, goats, 2 mg/kg SC (SQ) single dose, median, n = 5
measureName: Vd/F (L/kg)
Provide only the numeric value, understood in L/kg.

Recorded Vd/F for COc1ccc2nc([S@@+]([O-])Cc3ncc(C)c(OC)c3C)[nH]c2c1 [Esomeprazole, esomeprazole] , please? 0.78

----------
- protocolDescription: Plasma pharmacokinetics of esomeprazole and esomeprazole sulfone in goats after IV and SC administration (HPLC, non-compartmental analysis)
- assayConditions: both, pygmy and pygmy-cross, plasma, sc, 2 mg/kg, Tmax, goats, 2 mg/kg SC (SQ) single dose, median, n = 5
measureName: Tmax (min)
Provide only the numeric value, understood in min.

Recorded Tmax for COc1ccc2nc([S@@+]([O-])Cc3ncc(C)c(OC)c3C)[nH]c2c1 [Esomeprazole, esomeprazole] , please? 20
